test: DUSP6 inhibitors restoring Erk phosphorylation by chemical complementation, primary imaging in DUSP6-transfected HeLa (AID 609); details: HeLa MKP-3 transfected, phospho-Erk imaging KS statistic; measured here: nuclear c-Myc green intensity z-score; at 10 µM; cells stimulated with TPA for 15 min
OBSERVED_PROPERTY: z-score
Just the number, please.

A selection of reference data follows.
1) COc1ccc(C2NC3=C(CCC3)C3(C#N)C(OC)(OC)N=C(N)C23C#N)cc1 (stereo not drawn)
0.913
2) Cn1c(Cn2cnc3ccccc32)nc2ccccc21
-0.835

Param item = `CCc1nc2c(sc3nc(N4CCOCC4)c4c(c32)CC(C)(C)OC4)c(=O)o1` ; retrieve measured z-score.
0.948

* * *

Form field: NADPH fluorescence slope (one value per entry).
target: Voltage-gated potassium channel subunit beta-2 (Rattus norvegicus); experiment: KvBeta positive modulators, primary screen, biochemical, NADPH fluorescence (AID 623); conditions: Recombinant KvBeta, NADPH fluorescence decrease slope, 10 min; at 10 µM; stronger effect = lower value;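 further: fluorescence intensity change per second fitted from 20 to 320 s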
Activity calls are given as the source filed them.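 How the source made its calls: active means NADPH fluorescence slope more negative than the mean of all samples by about 3 SD, 99.7% confidence; inactive means the rest.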

// worked examples, NADPH fluorescence slope included
1. CCOc1ccc(N2C(=O)CC(N3CC(C)OC(C)C3)C2=O)cc1 (stereo not given)
5.9e-06 (inactive)
2. CCOC(=O)N1CCN(C2OC(=O)c3ccccc32)CC1 (stereo not given)
-0.000295 (inactive)
3. CCCCN(C(=O)c1ccc(Cl)cc1)C1CC2CCC(C1)N2C (stereo not given)
-6.5e-05 (inactive)
4. Oc1ccc(Cl)cc1-c1cc(-c2ccccc2)n[nH]1
-1.3e-05 (inactive)
5. CCN1C(=O)c2ccccc2S(=O)(=O)c2ccc(C(=O)NCc3cccnc3)cc21
-4.8e-05 (inactive)

// returns reported NADPH fluorescence slope for input `CCOC(=O)C1=Nc2ccccc2C1=[N+]=[N-]`
-4.9e-05 (inactive)

`Cc1ccc(-n2ncc(C(=O)N3CCc4ccccc4C3)c2NC(=O)c2ccco2)cc1C` , same question.
-9.8e-05 (inactive)

Proceed to `CC(C)c1nc(NCCN2CCOCC2)c(C#N)c2c1COC(C)(C)C2`
-0.000118 (inactive)

Now give it for `O=C1N=C(N2CCOCC2)CS1` too.
-1.2e-05 (inactive)

* * *

assay: DUSP6 inhibitors restoring Erk phosphorylation by chemical complementation, primary imaging in DUSP6-transfected HeLa (AID 609); settings: HeLa MKP-3 transfected, phospho-Erk imaging KS statistic; measured here: nuclear c-Myc green intensity z-score; at 10 µM; cells stimulated with TPA for 15 min
Kind request: treat 0.05 as inclusive, so z-score at 0.05 or higher is Criterion met, anything lower is Criterion not met.

Here are 3 molecules together with their reported answers.
1) CSc1nc2sc3c(c2c2nncn12)CCC3
Criterion not met
2) COc1ccc(-c2nc3n(n2)C(=O)CC(c2ccco2)S3)cc1 (stereo not given)
Criterion not met
3) COc1ccc(C(O)C(CN2CCOCC2)c2ccccc2)cc1 (stereo not given)
Criterion not met

Now look at this entry.
Given `CCCOc1ccccc1C(=O)NCCCC(=O)O` , state whether its z-score is at least 0.05.
Criterion met

* * *

assay: inhibitors of mutant huntingtin aggregation, primary screen, imaging, exon1htt(103Q)mCFP cells, high-content imaging (AID 483); conditions: exon1htt(103Q)mCFP cell line, aggregate imaging, at 2 µM; stronger effect = higher value;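 further: compound exposure lasted 3 days before fixation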
The source made the active and inactive calls.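 The calls were made as follows: active = visual image review flags a hit and inhibition of aggregation exceeds 20%; inconclusive = visual hit but inhibition at or below 20%; inactive = no hit on visual image review.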
Reported inhibition of aggregation values for the following compounds.

Below: 2 compounds and their reported inhibition of aggregation.
1. CCOC(=O)C1=C(N)OC2=C(C(=O)CC(C)(C)C2)C1c1ccco1 (centres undefined)
-38.9% (inactive)
2. O=C(CN1C(=O)CCSc2ccccc21)Nc1ccccc1
-19.8% (inactive)

Which inhibition of aggregation value is on record for `N#CC1=C(N)N(c2ccc(Oc3ccccc3)cc2)C(=O)C1` ?
-0.2% (inactive)

What would you report for `O=C(CCN1CCc2ccccc2C1)Nc1ccc2c(c1)OCO2` ?
14.5% (inactive)

Now the same for NC(=O)C(Cc1ccccc1)NS(=O)(=O)c1ccc(N2CCCC2=O)cc1 (centres undefined)
4.5% (inactive)

Again, but for `O=c1c(-c2ccc(Br)cc2)coc2c(CN3CCOCC3)c(O)ccc12`
-1.6% (inactive)

Lookup `O=C1OC2(c3ccccc3)C3CCCC2C13`
7.7% (inactive)

* * *

The entries below come with measured NADPH fluorescence slope values attached.
molecular target: Voltage-gated potassium channel subunit beta-2 (Rattus norvegicus) (UniProt P62483); experiment: KvBeta positive modulators, primary screen, biochemical, NADPH fluorescence (AID 623); conditions: Recombinant KvBeta, NADPH fluorescence decrease slope, 10 min; at 10 µM; stronger effect = lower value;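 further: fluorescence intensity change per second fitted from 20 to 320 s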
Sequence (P62483 whole entry, looked up): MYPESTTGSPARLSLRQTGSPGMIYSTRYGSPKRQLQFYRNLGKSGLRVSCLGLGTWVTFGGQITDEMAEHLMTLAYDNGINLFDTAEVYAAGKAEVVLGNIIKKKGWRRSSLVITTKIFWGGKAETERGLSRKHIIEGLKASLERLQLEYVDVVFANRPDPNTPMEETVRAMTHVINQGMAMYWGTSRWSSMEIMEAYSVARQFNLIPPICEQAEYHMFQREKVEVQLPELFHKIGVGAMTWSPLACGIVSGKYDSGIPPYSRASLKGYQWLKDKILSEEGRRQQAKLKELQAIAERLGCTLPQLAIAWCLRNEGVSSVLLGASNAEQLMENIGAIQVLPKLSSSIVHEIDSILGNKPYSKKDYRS
Output: the number by itself.

// known answers, use as guide
1. O=C1CC(c2ccc(F)c(Br)c2)C2=C(CCCC2=O)N1 (stereo not drawn)
4e-06
2. COc1cc2nc(-c3ccccc3)nc(N3CCCC3)c2cc1OC
-0.000105
3. O=C(c1cc(N2CCCCC2)nc2ccccc12)N1CCOCC1
-1.2e-05
4. COc1cccc(-c2nc(N3CCCCC3C)c3ccccc3n2)c1O (stereo not drawn)
-7.5e-05
5. Cc1cc(C)c(C#N)c(OCC(=O)c2ccccc2)n1
-3.4e-05
6. COc1ccc(N(CC(=O)Nc2cc(C)ccc2C)S(=O)(=O)c2c(C)nn(C)c2C)cc1
-2.9e-05
7. COc1ccc(NC(=O)CS(=O)CC(=O)Nc2cc(Cl)ccc2OC)cc1 (stereo not drawn)
-6.2e-05
8. CN1CCN(c2c3c(c(C#N)c4nc5ccccc5n24)CCCC3)CC1
-3.3e-05
9. COc1c(Br)cc2c(C)c(C(=O)O)oc2c1Br
-0.000118
10. CSc1cc(C)nc(N(C)C(C)=O)n1
-5.5e-05

Any idea what its NADPH fluorescence slope is? The compound is `CCCCc1nc(N2CCOCC2)c(C#N)c2c1COC(C)(C)C2`
-6.7e-05

Try the compound `Cc1noc(C)c1C(=O)Nc1ccc(Cl)cc1C(F)(F)F`
-1e-05

Continue with `COC(=O)c1[nH]c2ccc(Cl)cc2c1NC(=O)C1CC1`
-5.4e-05

* * *

target: Voltage-gated potassium channel subunit beta-2 (Rattus norvegicus); assay: KvBeta enzyme negative modulators, primary screen, biochemical, NADPH fluorescence (AID 622); settings: recombinant KvBeta, 4-cyanobenzaldehyde reduction, at 10 µM, stronger effect = higher value;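 further: slope of raw intensity against log time taken from 70 to 1610 s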
OBSERVED_PROPERTY: fluorescence slope
Number only, please.

Look up fluorescence slope: `Cc1ccc(Cn2ccc(NC(=O)c3cc(-c4cccs4)on3)n2)cc1`
-0.493

For `O=C(NCc1ccccc1)c1cc(-c2ccco2)on1` then?
-0.506

And the next one, `Cc1ccccc1-n1nc(C)c2cc(C(=O)NCc3cccnc3)sc21` ?
-0.493

Now consider `COC(=O)c1ccccc1OCC(=O)NC1CCCCC1` and answer again.
-0.511

And what about the compound `Cc1nc(CCNC(=O)c2ccccc2)cs1` ?
-0.486

Here is the next compound: `O=c1[nH]c(N2CCc3ccccc32)nc2c1CCCC2`
-0.507

Try the compound `O=C1c2ccccc2S(=O)(=O)N1Cc1nnc(-c2ccccc2Br)o1`
-0.488

* * *

test: inhibitors of poly I:C-induced TLR3 signaling, primary screen, cell-based, poly I:C stimulus, luciferase, 10K MLSCN set (AID 602277); details: HEK293-TLR3 RL24 IRF3 luciferase reporter, at 10 µM, stronger effect = higher value
Where a SMILES comes first, the peptide text is derived from it. The star is where a group is joined. Boc = CC(C)(C)OC(=O)*
OBSERVED_PROPERTY: inhibition (%)
I only need the number, in %, no unit after it.

1. c1cn(CC2(Cn3ccnc3)COC2)cn1
17.6

Param item = `O=C1CCCN1Cc1ncnn1-c1ccccc1` ; retrieve measured inhibition.
3.72

How about CSCCC(NC(=O)c1ccco1)C(=O)O (stereo unspecified) ?
-11.3

Can you handle `N/C(=N/O)c1nc(N2CCCC2)nc(N(c2ccccc2)c2ccccc2)n1` next?
40.9

Entry to check: CC1CCCCC1NC(=O)Cn1nnc(-c2ccc(Cl)cc2)n1 (stereo unspecified)
-12

Moving on to CCN1C(=O)c2ccccc2S(=O)c2ccc(C(=O)NC3CC3)cc21 (stereo unspecified)
24

Let us now turn to CCOC(=O)C1(CC)NC(c2cccc(F)c2)C2C(=O)N(CC)C(=O)C21 (stereo unspecified)
16.3

Do the same for `O=S1(=O)N=C(Nc2nc3c(s2)CCCC3)c2ccccc21` please
-97.7

What would you report for COc1ccccc1CN1CCCC(C(=O)N(C)Cc2ccccc2)C1 (stereo unspecified) ?
33.5

Could you do the same for O=C(NCc1cccs1)C1CC(=O)N(C2CCCC2)C1 (stereo unspecified) , please?
-21.8

Here is the next compound: CSCCC(NC(=O)OC(C)(C)C)C(=O)NC(CC(C)C)C(N)=O (stereo not drawn) (Boc-Met-Leu-NH2; configuration not given here)
22

Then what about the compound `CCN(CC)CCCNC(=O)c1nn(-c2ccc(OC)cc2OC)c(=O)c2ccccc12` ?
7.12
